Molecular target: DLL3 endogenously expressed on NCI-H82 cells (UniProt Q9NYJ7)
Sequence (Q9NYJ7 27-618): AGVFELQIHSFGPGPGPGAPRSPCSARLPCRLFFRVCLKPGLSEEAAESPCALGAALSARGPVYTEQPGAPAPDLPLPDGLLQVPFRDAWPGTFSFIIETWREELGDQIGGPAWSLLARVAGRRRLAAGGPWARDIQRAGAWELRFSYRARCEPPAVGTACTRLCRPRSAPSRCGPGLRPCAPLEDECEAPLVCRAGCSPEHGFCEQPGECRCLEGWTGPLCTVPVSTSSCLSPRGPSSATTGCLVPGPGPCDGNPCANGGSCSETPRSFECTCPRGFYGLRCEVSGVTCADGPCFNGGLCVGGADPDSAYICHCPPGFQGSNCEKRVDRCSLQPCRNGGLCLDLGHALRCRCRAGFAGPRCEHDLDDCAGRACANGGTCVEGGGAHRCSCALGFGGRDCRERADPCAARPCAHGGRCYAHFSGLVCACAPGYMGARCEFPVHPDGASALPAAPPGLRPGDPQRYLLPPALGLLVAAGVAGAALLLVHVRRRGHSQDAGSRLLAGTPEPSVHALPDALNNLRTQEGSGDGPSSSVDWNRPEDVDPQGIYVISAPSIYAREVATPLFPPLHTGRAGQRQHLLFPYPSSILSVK
Experiment: FACS on NCI-H82 cells; antibody 100 nM
Measurement Kind: MFI
One number for each entry.

Task: Sample Hab008L3H5-hFc (scFv, part only; not given: scFv linker and human IgG1 Fc, V domains shown, not shown: another chain or arm of the molecule; a dimerising Fc or GST; small tags and cut ends) VL: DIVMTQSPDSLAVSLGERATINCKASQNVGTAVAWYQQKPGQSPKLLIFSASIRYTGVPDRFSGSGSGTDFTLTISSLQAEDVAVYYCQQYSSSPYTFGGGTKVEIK VH: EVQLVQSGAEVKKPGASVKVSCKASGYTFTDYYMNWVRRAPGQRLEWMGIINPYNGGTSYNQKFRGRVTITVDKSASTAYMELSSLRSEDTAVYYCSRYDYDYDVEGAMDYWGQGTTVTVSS — what was its MFI?
Output: 1340
